molecular target: T1, human Claudin18.2 (CLDN18.2) (human, UniProt P56856 1-261); assay: FACS on CHOK1-18.2 cells;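 further: antibody binding to the cells detected with a fluorescently labelled secondary antibody and read out as median fluorescence intensity by flow cytometry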
T1 construct: the cell line is named under assay; also called human Claudine18.2; hClaudin18.2
Binary call on FACS MFI with cut-off 9000: strictly below means satisfied, and equality or higher means not satisfied.

- binder: "Ab21 (antibody, V domains shown, mouse monoclonal (hybridoma)) VH: EVMLVESGGGLVKPGGSLKLSCAASGFTFSSYTMSWVRQTPEKRLEWVATIIGGYGNTYYVDSVKGRFTISRDSAKNTLYLQMISLRSEDTALYYCTRLGQTQRNAMDYWGQGTSVTVSS VL: DILMTQSPSSLSVSAGEKVTMSCKSSQSLLNSGNQKNYLAWYQQKPGQPPKLLIYGASTRESGVPDRFTGSGSGTDFTLTISSVQAEDLAVYYCQNDYYYPFTFGAGTKLEL"
  discrete.label: "not satisfied"
- binder: "Ab13 (antibody, V domains shown, mouse monoclonal (hybridoma)) VH: EVRLVESGGGLVKPGGSLKLSCAGSGFTFSSYTMSWVRQTPEKRLEWVATITIGVNIYYLDSVKGRFTISRDNAKNTLYLQMNSLRSEDTALYYCTRLGQTQRNAMDYWGQGTSVTVSS VL: DIVMTQSPTSLSVSAGEKVTMTCKSSQSLLNSGNQKNYLAWYQEKPGQPPKLLIYGASTRESGVPDRFTGSGSGTDFTLTISSVQAEDLAVYYCQNNHFYPLTFGAGTKLELK"
  discrete.label: "satisfied"
- binder: "Ab29 (antibody, V domains shown, mouse monoclonal (hybridoma)) VH: EVLLQQSGPELVKPGASVKIPCKASGYTLTDHSMDWVKQSHGKSLEWIGNILPNNGGNIYNQKFRGKATLTVDKSSSTAYMELRSLTSEDTAVYNCARGHYGNSFAYWGQGTLVIVS VL: DIVMTQSPSSLTVRAGEKVTIYCKSSQSLFNSGNQKNYLTWYQQKPGQPPKLLIYWASTRESGVPHRFTGSGSGTDFTLTISSMQADDLATYYCQNGYFFPYTFGGGTKLEIK"
  discrete.label: "not satisfied"
- binder: "Ab10 (antibody, V domains shown, mouse monoclonal (hybridoma)) VH: EVMLVESGGGLVKPGGSLKLSCAASGFTFSSYTMSWVRQTPEKRLEWVATISVIGGNTYYVDSVKGRFTISRDKAKNTLYLQMSSLRSEDTALYYCARLGQTQRNAMDYWGQGTSVTVSS VL: DIVMTQSPSSLSVSAGEKVTMSCKSSQSLLNSGNQKNYLAWYQQKPGQPPKLLIYGASTRESGVPDRFTGSGSGTDFTLTISSVQAEDLAVYYCQNDYSYPLTFGAGTKLELK"
  discrete.label: "satisfied"
